# measurement-target: R174A FDTS (Thermotoga maritima, UniProt Q9WYT0, R174A)
# Sequence (Q9WYT0 whole entry R174A): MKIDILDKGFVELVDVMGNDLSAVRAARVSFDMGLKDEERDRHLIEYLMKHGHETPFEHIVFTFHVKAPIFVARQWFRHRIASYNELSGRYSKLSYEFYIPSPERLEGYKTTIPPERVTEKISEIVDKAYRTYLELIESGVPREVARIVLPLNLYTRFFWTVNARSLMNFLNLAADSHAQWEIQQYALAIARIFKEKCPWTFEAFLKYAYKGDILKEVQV
# assay-comment: Spectrophotometric titration of R174A FDTS with ligand
readout: Kd (µM)
Answers are plain numbers, in µM.

## Task Give Kd (R174A FDTS (Thermotoga maritima, UniProt Q9WYT0, R174A)) of the following compound: O=c1ccn([C@H]2C[C@H](O)[C@@H](COP(=O)(O)O)O2)c(=O)[nH]1 [dUMP, 2′-deoxyuridine-5′-monophosphate]
## Result 109

* * *

# measurement-target: WT FDTS (Thermotoga maritima, UniProt Q9WYT0)
# Sequence (Q9WYT0 whole entry): as the sequence (Q9WYT0 whole entry R174A) above, with A174R counted along it
pKd: −log10 of the molar value.
readout: pKd

## Task Returns the measured pKd for the input compound. Input: O=c1ccn([C@H]2C[C@H](O)[C@@H](COP(=O)(O)O)O2)c(=O)[nH]1 [dUMP, 2′-deoxyuridine-5′-monophosphate]
## Result ~7.52

Recorded values, source paper PMC5939375.
